Species: Rattus norvegicus
Assay: Open TG-GATES - Regimen: Daily Repeat
Assay type: toxicity, organism-based, Sprague-Dawley
Set-up: regimen Daily Repeat, gender Male, age 6 weeks
Details: in vivo, po, 1000 mg/kg, […], tissue Plasma, route gavage, dose level High, time 7 day
reported-property: Na (meq/L)
Numbers only, in meq/L.

Previously resolved entries follow.
O=C(O)c1ccccc1Nc1ccccc1 [FENAMIC ACID]: 144
CC(=O)[C@@]1(O)CC[C@H]2[C@@H]3C=C(Cl)C4=CC(=O)CC[C@]4(C)[C@H]3CC[C@@]21C [CHLORMADINONE]: 140
CC(S)C(=O)NCC(=O)O (centres undefined) [TIOPRONIN]: 140

Note: attention shifts to another entry.
Problem: Which Na value belongs to CCCCNC(=O)NS(=O)(=O)c1ccc(C)cc1 [TOLBUTAMIDE] ?
Solution: 141.8
